biological target: UniProt P30405; experiment: Inhibitor binding to cyclophilin proteins by SPR, CypF; conditions: 1:1 binding model
Sequence (P30405 30-207): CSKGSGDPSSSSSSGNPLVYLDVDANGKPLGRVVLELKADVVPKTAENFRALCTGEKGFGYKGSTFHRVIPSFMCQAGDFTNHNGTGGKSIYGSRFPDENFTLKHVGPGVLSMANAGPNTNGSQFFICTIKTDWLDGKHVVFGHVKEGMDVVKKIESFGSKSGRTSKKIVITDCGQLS
Starred links: 1 amine or outer side, 2 acyl side, 3 side chain; linkers in the order of their positions; H or OH if unused. Non-standard residues stand in square brackets, D forms with d. Residues, ends and D or L forms follow the SMILES beside them. X32 = C[C@H](CN1CC2(COC2)C1)[C@@H](C(=O)[*:2])N(C)[*:1]; MeBmt = C/C=C/C[C@@H](C)[C@@H](O)[C@H](NC)C(=O)O; NMeL = CN[C@@H](CC(C)C)C(=O)O; NMeV = CN[C@H](C(=O)O)C(C)C; dNMeA = CN[C@H](C)C(=O)O; Abu = CC[C@H](N)C(=O)O

compound | CypF Kd
C/C=C/C[C@@H](C)[C@@H](O)[C@H]1C(=O)N[C@@H](CC)C(=O)N(C)[C@H](C)C(=O)N(C)[C@@H]([C@H](C)CN2CC3(COC3)C2)C(=O)N[C@@H](C(C)C)C(=O)N(C)[C@@H](CC(C)C)C(=O)N[C@@H](C)C(=O)N[C@H](C)C(=O)N(C)[C@@H](CC(C)C)C(=O)N(C)[C@@H](CC(C)C)C(=O)N(C)[C@@H](C(C)C)C(=O)N1C [Compound 2.5.16] (cyclo(A[dA][NMeL][NMeL][NMeV][MeBmt][Abu][dNMeA][X32]V[NMeL])) | 0.7 nM
